# TEST_TARGET: STING WT: His-TVMV-S-hSTING(155-341)-H232R (Homo sapiens, UniProt Q86WV6, H232R)
# Construct: STING WT: His-TVMV-S-hSTING(155-341)-H232R
# Sequence (Q86WV6 with tags, fused parts or gaps H232R): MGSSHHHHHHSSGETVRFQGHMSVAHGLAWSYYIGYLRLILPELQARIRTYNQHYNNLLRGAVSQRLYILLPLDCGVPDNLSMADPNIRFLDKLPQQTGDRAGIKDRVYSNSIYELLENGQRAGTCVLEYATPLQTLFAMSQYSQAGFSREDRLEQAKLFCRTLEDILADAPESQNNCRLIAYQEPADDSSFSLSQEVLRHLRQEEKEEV
# METHOD_SUMMARY: STING HTRF Binding Assay, STING WT
# STUDY_CONDITIONS: 20 nM His-tagged STING cytoplasmic domain, 200 nM fluorescein-labeled cGAMP analog probe, one hour; read-out: HTRF Binding Assays IC50 (μM) STING WT
Listing of recorded IC50 by entry.
State just the number; it will be interpreted in µM.

Completed entries (count: 3):
NC(=O)c1cccc2c1nnn2[C@@H]1O[C@@H]2COP(=O)(O)O[C@H]3[C@@H](F)[C@H](n4cnc5c(N)ncnc54)O[C@@H]3COP(=O)(O)O[C@H]2[C@H]1F [Example 7] = 11.9
Nc1ncnc2c1ncn2[C@@H]1O[C@@H]2COP(=O)(S)O[C@H]3[C@@H](F)[C@H](n4cnc5c4ncn4ccnc54)O[C@@H]3COP(=O)(S)O[C@H]2[C@H]1F (single isomer, unassigned) [Example 21-3] = 0.02
NC(=O)c1cccc2c1nnn2[C@@H]1O[C@@H]2COP(=O)(S)O[C@H]3[C@@H](F)[C@H](n4cnc5c(N)ncnc54)O[C@@H]3COP(=O)(S)O[C@H]2[C@H]1F (single isomer, unassigned) [Example 4-4] = 0.78

Item Nc1ncnc2c1ncn2[C@@H]1O[C@@H]2COP(=O)(S)O[C@H]3[C@@H](O)[C@H](n4nnc5c([N+](=O)[O-])cccc54)O[C@@H]3COP(=O)(O)O[C@H]2[C@H]1F (single isomer, unassigned) [Example 13-1] with STING WT: His-TVMV-S-hSTING(155-341)-H232R (Homo sapiens, UniProt Q86WV6, H232R) - IC50?
8.45

* * *

# TEST_TARGET: STING WT: His-TVMV-S-hSTING(155-341)-H232R (Homo sapiens, UniProt Q86WV6, H232R)
# Construct: STING WT: His-TVMV-S-hSTING(155-341)-H232R
# METHOD_SUMMARY: STING HTRF Binding Assay, STING WT
# STUDY_CONDITIONS: 20 nM His-tagged STING cytoplasmic domain, 200 nM fluorescein-labeled cGAMP analog probe, one hour; read-out: HTRF Binding Assays IC50 (μM) STING WT
READOUT_LABEL: IC50 (µM)
Report the figure in µM without appending any unit label.

NC(=O)c1cccc2c1nnn2[C@@H]1O[C@@H]2COP(=O)(O)O[C@H]3[C@@H](F)[C@H](n4cnc5c4ncn4ccnc54)O[C@@H]3COP(=O)(O)O[C@H]2[C@H]1F [Example 9] = 84.1
Nc1ncnc2c1ncn2[C@@H]1O[C@@H]2COP(=O)(O)O[C@H]3[C@@H](O)[C@H](n4cnc5c(=O)n6ccnc6[nH]c54)O[C@@H]3COP(=O)(O)O[C@H]2[C@H]1F [Example 2] = 0.04
Nc1ncnc2c1ncn2[C@@H]1O[C@@H]2COP(=O)(S)O[C@H]3[C@@H](F)[C@H](n4cnc5c4ncn4ncnc54)O[C@@H]3COP(=O)(S)O[C@H]2[C@H]1F (single isomer, unassigned) [Example 12-3] = 0.02
Nc1ncnc2c1ncn2[C@@H]1O[C@@H]2COP(=O)(O)O[C@H]3[C@@H](O)[C@H](n4cnc5c4ncn4ncnc54)O[C@@H]3COP(=O)(O)O[C@H]2[C@H]1F [Example 11] = 0.23
Nc1ncnc2c1ncn2[C@@H]1O[C@@H]2COP(O)(=S)O[C@H]3[C@@H](F)[C@H](n4cnc5c4ncn4ncnc54)O[C@@H]3COP(O)(=S)O[C@H]2[C@H]1F (single isomer, unassigned) [Example 12-1] = 0.56

Next:
Could you share which IC50 value was measured for Nc1ncnc2c1ncn2[C@@H]1O[C@@H]2COP(=O)(S)O[C@H]3[C@@H](O)[C@H](n4cnc5c(=O)n6ccnc6[nH]c54)O[C@@H]3COP(=O)(S)O[C@H]2[C@H]1F (single isomer, unassigned) [Example 1-2] ?
0.07

* * *

# TEST_TARGET: STING AQ: His-TVMV-S-hSTING(155-341)-G230A-R293Q (Homo sapiens, UniProt Q86WV6, G230A/H232R/R293Q)
# Construct: STING AQ: His-TVMV-S-hSTING(155-341)-G230A-R293Q
# Sequence (Q86WV6 with tags, fused parts or gaps G230A/H232R/R293Q): as the sequence (Q86WV6 with tags, fused parts or gaps H232R) above, with G99A, R162Q counted along it
# METHOD_SUMMARY: STING HTRF Binding Assay, STING AQ
# STUDY_CONDITIONS: 20 nM His-tagged STING cytoplasmic domain, 40 nM fluorescein-labeled cGAMP analog probe, one hour; read-out: HTRF Binding Assays IC50 (μM) STING AQ
The following compounds are listed with their measured log10(IC50) values.
Recall that a logarithmic scale is used here: each number is log10 of IC50 in µM.

Nc1ncnc2c1ncn2[C@@H]1O[C@@H]2COP(=O)(S)O[C@H]3[C@@H](F)[C@H](n4cnc5c4ncn4ccnc54)O[C@@H]3COP(=O)(S)O[C@H]2[C@H]1F (single isomer, unassigned) [Example 21-1] = -2.00
NC(=O)c1cccc2c1nnn2[C@@H]1O[C@@H]2COP(=O)(S)O[C@H]3[C@@H](F)[C@H](n4cnc5c(N)ncnc54)O[C@@H]3COP(=O)(S)O[C@H]2[C@H]1F (single isomer, unassigned) [Example 4-4] = -1.70
NC(=O)c1cccc2c1nnn2[C@@H]1O[C@@H]2COP(=O)(S)O[C@H]3[C@@H](F)[C@H](n4cnc5c(N)ncnc54)O[C@@H]3COP(=O)(S)O[C@H]2[C@H]1F (single isomer, unassigned) [Example 4-1] = 1.25
O=c1[nH]cnc2c1ncn2[C@@H]1O[C@@H]2COP(=O)(O)O[C@H]3[C@@H](O)[C@H](n4cnc5c4ncn4ccnc54)O[C@@H]3COP(=O)(O)O[C@H]2[C@H]1O = -0.31
NC(=O)c1cc([C@@H]2O[C@@H]3COP(=O)(O)O[C@H]4[C@@H](F)[C@H](n5cnc6c(N)ncnc65)O[C@@H]4COP(=O)(S)O[C@H]3[C@H]2O)ccn1 (stereo partly drawn) = 0.06

Name the reported log10(IC50) value associated with the compound NC(=O)c1cccc2c1nnn2[C@@H]1O[C@@H]2COP(=O)(O)O[C@H]3[C@@H](F)[C@H](n4cnc5c(N)ncnc54)O[C@@H]3COP(=O)(S)O[C@H]2[C@H]1F (single isomer, unassigned) [Example 8-2]
-1.15

For the compound NC(=O)c1cccc2c1nnn2[C@@H]1O[C@@H]2COP(=O)(O)O[C@H]3[C@@H](F)[C@H](n4cnc5c(N)ncnc54)O[C@@H]3COP(=O)(O)O[C@H]2[C@H]1F , what log10(IC50) is on record?
-0.51

Recorded log10(IC50) for Nc1ncnc2c1ncn2[C@@H]1O[C@@H]2COP(=O)(S)O[C@H]3[C@@H](O)[C@H](n4cnc5c(=O)n6ccnc6[nH]c54)O[C@@H]3COP(=O)(S)O[C@H]2[C@H]1F (single isomer, unassigned) [Example 1-2] , please?
-2.00

Entry NC(=O)c1cccc2c1nnn2[C@@H]1O[C@@H]2COP(=O)(S)O[C@H]3[C@@H](F)[C@H](n4cnc5c(N)ncnc54)O[C@@H]3COP(=O)(S)O[C@H]2[C@H]1F (single isomer, unassigned) [Example 4-3] has what log10(IC50)?
-0.41

* * *

# TEST_TARGET: STING AQ: His-TVMV-S-hSTING(155-341)-G230A-R293Q (Homo sapiens, UniProt Q86WV6, G230A/H232R/R293Q)
# Construct: STING AQ: His-TVMV-S-hSTING(155-341)-G230A-R293Q
# METHOD_SUMMARY: STING HTRF Binding Assay, STING AQ
# STUDY_CONDITIONS: 20 nM His-tagged STING cytoplasmic domain, 40 nM fluorescein-labeled cGAMP analog probe, one hour; read-out: HTRF Binding Assays IC50 (μM) STING AQ
# Experimental: A time resolved FRET-based competition binding assay was used to assess test article binding to STING WT and STING AQ. […] Fluorescence at 495 nm and 520 nm was measured using an EnVision microplate reader to quantify FRET between Tb-labeled anti-His antibody and fluorescein-labeled probe. […] Percent inhibition was determined for test compounds at 11 concentrations. […]
READOUT_LABEL: IC50 (µM)
Could you give me the number in µM? Just the number is fine.

NC(=O)c1cc([C@@H]2O[C@@H]3COP(=O)(S)O[C@H]4[C@@H](F)[C@H](n5cnc6c(N)ncnc65)O[C@@H]4COP(=O)(S)O[C@H]3[C@H]2O)[nH]n1 (single isomer, unassigned) [Example 6-2] = 5.75
Nc1ncnc2c1ncn2[C@@H]1O[C@@H]2COP(=O)(S)O[C@H]3[C@@H](O)[C@H](n4cnc5c4ncn4ncnc54)O[C@@H]3COP(=O)(O)O[C@H]2[C@H]1F (single isomer, unassigned) = 0.04
Nc1ncnc2c1ncn2[C@@H]1O[C@@H]2COP(=O)(S)O[C@H]3[C@@H](F)[C@H](n4cnc5c4ncn4ncnc54)O[C@@H]3COP(=O)(S)O[C@H]2[C@H]1F (single isomer, unassigned) [Example 12-2] = 0.002
Nc1ncnc2c1ncn2[C@@H]1O[C@@H]2COP(=O)(O)O[C@H]3[C@@H](O)[C@H](n4cnc5c(=O)n6ccnc6[nH]c54)O[C@@H]3COP(=O)(O)O[C@H]2[C@H]1F = 0.01
O=P1(O)OC[C@H]2O[C@@H](n3cnc4c3ncn3ccnc43)[C@H](O)[C@@H]2OP(=O)(O)OC[C@H]2O[C@@H](n3cnc4c3ncn3ccnc43)[C@H](O)[C@@H]2O1 = 0.65
Nc1ncnc2c1ncn2[C@@H]1O[C@@H]2COP(O)(=S)O[C@H]3[C@@H](F)[C@H](n4cnc5c4ncn4ncnc54)O[C@@H]3COP(O)(=S)O[C@H]2[C@H]1F (single isomer, unassigned) = 0.04

# ---- query compound ----
Please give the measured IC50 for this compound: Nc1ncnc2c1ncn2[C@@H]1O[C@@H]2COP(=O)(S)O[C@H]3[C@@H](F)[C@H](n4cnc5c4ncn4ncnc54)O[C@@H]3COP(=O)(S)O[C@H]2[C@H]1F (single isomer, unassigned) [Example 12-4]
0.005
